Recorded values, source patent US20260242478A1.

Overview of recorded phage binding ELISA signal for various binders
# Measured target: T1, PSMA Fab (biotinylated (site not stated))
# T1 construct: also called Anti-PSMA Fab; 006 PSMA Fab
# Experiment description: clonal phage ELISA on captured PSMA Fab; competitor: PSMA antigen at saturating concentration

Binder | phage binding ELISA signal
LTQMCKPLWMCAGF [Phage-3506] | 0.0786
NIIHCVPPWMCDGF [Phage-3504] | 0.0795
VVKHCVPTWMCAGF [Phage-3514] | 0.0813
VGHMCKPVWMCAGL [Phage-3511] | 0.101
